method description: yeast display, Sf9 membrane polyspecificity reagent, FACS + sequencing; frameworks hold sequencing errors

monomer sequence | polyreactivity (PSR sort gate)
QVQLVESGGGLVQAGGSLRLSCAASGRISSVYAMGWYRQAPGKERELVAAINWRVGSTYYADSVKGRFTISRDNAKNTVYLQMNSLKPEDTAVYYCAVDPVYGIIGSRYDYWGQGTQVTVSS | low polyreactivity
QVQLVESGGGLVQAGGSLRLSCAASGSTFDRYAMGWYRQAPGKERELVAAISCSGGRTYYADSVKGRFTISRDNEKNTVYLQMNSLKPEDTAVYYCATVSRSSLAYIKYDYWGQGTQVTVSA | high polyreactivity
QVQLVESGGGLVQAGGSLRLSCAASGSTFSEYAMGWYRQAPGKEREFVATITVRGGSTYYADSVKGRFTISRDNAKNTVYLQMNSLKPEDTAVYYCAADGSGYYDWYYYWGQGTQVTVSS | low polyreactivity
QVQLVETGGGLVQAGGSHRLSCAASGYIFFGNAMGWYRQAPGKERELVASIRWRGTSTYYADSVKGRFTISRDNAKNTGYLHMNSLKPEDTAVYYCAADVVRSNFYGTFLYDYDYWGQGTQVTVSS | low polyreactivity
QVQLVESGGGLVQAGGSLRLSCAASGFTFRPYAMGWYRQAPGKERELVAAISTSGATTYYADSVKGRFTISRDNAKITVYLQMNSLKPEDTAVYYCNKVYWHHPWEYGYWGQGTQVTVSS | high polyreactivity
QVQLVESGGGIVQAGVSLRLSCAASGINIDYYAMGWYRQAPGKERELVAAITSGGSTSYADSVKGRFTISRDNAKNTVYLQMNSLKAEDTAVYYCNTEPSGYESGYWGQGTQVTVSS | low polyreactivity
QVQLVESGGGLVQAGGSLRLSCAASGFTFTKYAMGWYRQAPGKERELVAAITSGTSTYYADSVKGRFTISRDNAKYTVYLQMNSLKPEVTAVYYCAAPLYGRYSYGYWGQCTQVTVSS | high polyreactivity
QVQLVESGGGLVQAGGSLRLSSAASGRTTKVYAMGWYRQGPGKPRELVARITSSGVRRYYADSVKGRFTISRDNAKNTVYLHMNSLKPEDTAVYYCGKDARALWLHSGIYDYSGQGTQVTVSS | low polyreactivity
QVQLVESGGGLVQAGGSLRLSCAASGSIFRWYAMGWSRQAPGKERELVAAISKSGGTTYYADSVKGRFTISRDNAKNTVYLQMNSLKPEDTAVYYCAARRYPYGGYGYRYDYWGQGTQVTVSS | high polyreactivity
QVQLVESGGGLVQAGGSLRLSCDASGSTFGWYAMGWYRQAPGKERELVAAISKNGGRTYYADSVKGRFTISRDNAKNTVYLQMNSLKPVDTAVYYCNKVSKTVRDFDYWGQGTQVTVSS | high polyreactivity
QVQLVESGGGLVHAGGSLRLSCAASGSIFKVYAMGWYRQAPGKERELVASITSGGRTYADSVKGRFTISRDNAKNTVYLQRNSLKPEDTAVYYCSARSRSKFYYWGQGTQVTVSS | high polyreactivity
QVQLVESGGGLVQAGGSLRLSCAASGSIFGKYAMGWYRQAPGKERELVAAISERTGRTYYADSVKGRFTISRDNAKNTVYLQMNSLKPEDTAVYYCNVVPLDSGWSTYGYDYWGQGTQVTVSS | high polyreactivity
QVQLVESGGGLVQAGGSLRLSCAASGSTFSVYAMGWYRQAPGKERELVARITGGSTYADSVKGRFTISRDNAKNTVYLQMNSLKPEDTAVYFCNAYRYWSPGYDYWGQGTQVTVSS | low polyreactivity
QVQLVESGGGLVQAGGSHRLSCAASGSTFEYNDMGGNRQEQGKERELVAAISSGGDTNYADSVKGRFTISRDNAKNTVFLQMNSLKPEDTAVYYCAADDWSPYLCYYGYAGYYYCGQGTQVTVSS | low polyreactivity
QVQLVESGGGLVQAGGSLRLSCAASGSIFPLYAMGWYRQAPGKERELVADITVSGGSTYYADSVKGRFTISRDNAKNTVYLQMNSLKPEDTAVYYCAKDNGPWFAYDYWGQGTQVTVSS | low polyreactivity

====

method description: yeast display, Sf9 membrane polyspecificity reagent, FACS + sequencing; frameworks hold sequencing errors

monomer sequence | polyreactivity (PSR sort gate)
QVQLVESGGGLVQAGGSLRLSCAASGSIFEDYTRGWYRQAPGKERELVAAIDWSDASTFYADSVKGRFTISRDNAKNTVYLQMSLNPEDTAVYYCNVAIIFYDDDYWGQGTQVTVSS | high polyreactivity
QVQLVESGGGLVQAGGSLRLSCAASGSIFYSYAMGWYRQAPGKERELVASISDGSSTYADSVKGRFTISRDNAKNTVYLQMNSLKPEDTAVYYCNADATDSYPEKDEHDSWGQGTQVTVSS | low polyreactivity
QVQLVESGGGLVQAGGSLRLSCAASGRIFYKNAMGWYRPEPGKEREVVAAISSSGTRTYYADSVKGRFTISRENAKNTVSLQMNSLKPEDTAVYYCAAALGWYSAFGYWGQGTQVTVSS | high polyreactivity
QVQLVESGGGLVQAGGSLRLSCAASGRIFYYNAMGWYRPAPGKERELVAAINYRGGSTYYADSVKGRFTISRDNAKNTVYFQMNSLKPEDTAVYDCAARYWKDGSTYDYWGQGTQVTVSS | high polyreactivity
QVQLVDSGGGLVQAGGSLRLSCAASGCTFGSYAMGWYRQAPGKERELVAGITGSGGRTYYADSVKGRFTISRDNAKNTVYLQMNSLKPEDTAVYYCATTGRRWYYPYHYWGQGTHVTVSS | high polyreactivity
QVQLVESGGGLVQAGGSLRLSCAASGSTFVGYTMGWYRQAPGKERELVASITSDGSTNYADSVKGRFTISRDNAKNTVYLQMNSLKREDTAVYYCNADWSSLYVGEFDYWGQGTQVTVSS | low polyreactivity
QVQLVESGGGLVQAGGSLRLSCAASGLTFPPNAMGWYRQATGKEREFVAVISSGGGSTYYADSVKVRFTISRDNAKNTVYLQMNSLNPEDTAVYYCATEYQDGETEYYYWGQGTQVTVSS | low polyreactivity
QVQLVESGGGLVQAGGSLRLSCAASGRTFYIYAMGWYRQAPGKERELVAAITWRGGRTYYADSVKGRFTISRDNAKNTVYLQMNSLKPVDTAVYYCNARSWYSFHPHDYWGQGTQVTVSS | high polyreactivity
QVQLVESAGGLVQAVGSHRLSSATSGSIFSGNSMGWYRQAPGTQSELVADISQNGGRTYYADSVKGRFTISRDNAKYTVYLQINSLKPEDTGVYYCAARGWYRYGSVYYIGDYWGQGTQGTVSS | high polyreactivity
QVQLVESGGGLVQAGGSLRLSCAASVSTFGDYTMGWYRQAPGKERELVAAITLTGGSTYYADSVKGRFTISRDNAKNTVYLQMNSLKPEDTAVYYCNTDVIRWVGGTWHRYYYWGQGTQVTVSS | low polyreactivity
QVQLVESGGGLVQAGGSLRLSCAASGSIFAWYAMGWYRQAPGKERELVATITWSGGSTYYADSVKGRFTITRDNAKNTVYLQINSLKPEDTAVYYCAAEVVGIWYDLWYQGDYWGQGTQVTVSS | low polyreactivity
QVQLVESGGGLVQAGGSLRLSCAASGFTLYRYAMGWYRQAPGKERELVAAISKRGATSYYADSVKGRFTISRDNAKNTVYLQMNSLKPEDTAVYYCAATISRAYKPVKGHYYLGMDYWGQGTQVTVSS | high polyreactivity
QVQLVESGGGLVQAGGSLRLSCAASGRIFAWYAMGWYRQAPGKERELVAAISSGGSTNYADSVKGRFTISRDNAKNTVYLQMNSLKPEDTAVYYCNRYPVRDTGGYWGQGTQVTVSS | low polyreactivity
QVQLVESGGGLVQAGGSLRLSCAASGRTFYANAMGWYRQAPGKERELVASITTSGGTYYADSVKGRFTISRDNAKNTVYLQMNSLKPEDTAVYYCAAEVYRSIGYDYWGQGTQVTVSS | low polyreactivity
QVELVESGGGLVQAGGSLRLSCAASGFTFGYNAMGWYRQAPGKERELVAAIRLSGSSTYYADSVKGRFTISRDNAKNTVYLQMNSLNPEDTAVYYCAADGISHWLYRYDYWGQGTQVTVSS | low polyreactivity

====

method description: yeast display, Sf9 membrane polyspecificity reagent, FACS + sequencing; frameworks hold sequencing errors
result type: polyreactivity (PSR sort gate)

monomer sequence | reported
QVQLVESGGGLVQAGGSLRLSCAASGFTFYLNVMGWYRQAPGKERELVARISRSGGTTYYADSVKGRFTISRDNAKNTVYLQMNSLKPEDTAVYYCAARRYGVPPTYDYWGQGTQVTVSS | high polyreactivity
QVQLVESGGGLVQAGGSLRLSCAASGSTFSRYTMGWYRQAPGKERELVAVITRRGGSTYYADSVKGRFTISRDNAKNTVYLQMNSLKPADTAVYYCAADYKYPIDYGYWGQGTQVTVSS | high polyreactivity
QVQLVESGGGLVQAGGSLRLSCAASGSIFDYYTMGWYRQAPGKERELVATIRSGDSTNYADSVKGRFTISRDNAKNPVYVQMNSLKPEDTAVYYCAADDGAYPTLYDYWGQGTQVTVSS | low polyreactivity
QVQRVDSGGGLVQAGGSLRLSCAASGFTFAVYAMGWYRQSPGKERELVAAISRSGTRTYYADSVKGRFTISRDNAKNTVYLQMNSLKPEDTAVYYCAADKYRLGYDYWGQGTQLTVSS | low polyreactivity
QVQLVESGGGLVQAGGSLRLSCAASGSIFPGYAMGWYRQAPGKERELVATITYSDGSTYYADSVKRRFTISRDIATNTVFLQMNSLKPEDTAGYYCAVTYWWYYGYDYWGQGTQVTVSS | low polyreactivity
QVQLVESGRGLVQAGGSLRLSCAASGLTFRVYAMGWYRQAPGKERELVAAITGGGGSTYADSVKGRFTISRDNAKNTVYLQMNSLKPQDTAVYYCNKKGYYYKFDYWGQGTQVTVSS | low polyreactivity
QVQLVESGGGLVQAGGSLRLSCAASGIIFKEYAMGGYRPAPGKERELVAAISGRGGSTYYADSVKGRFSISRDNAKNTVYLQMSSLKPEDTAVYYCNAVASWQRYDYWGQGTQVTVSS | high polyreactivity
QVQLVESGGGLVQAGGSIRLSCAASGITFGRNTMGWYRQAPAKERELVAAIDSGGNTYADSVKGRFTISRDNAKNTVYLQMNSLKPEDTAVYYCAVDGYYLYYDYDYWGQGTQVTVSS | low polyreactivity
QVQLVESGGGLVQAGGSLRLSCAASGFTSDGYAMGWYRQAPGKERELVAAISWRGGSTYYADSVKGRFTISRDNAKNTVYLQMNSLKPEDTAVYYCAKDYYYGLEHYGYWGQGTQVTVSS | low polyreactivity
QVQLVESGGGLVQAGGSLRLSCAASGFIVKYNAMAWYRQAPGKERELVAAISYRGTRTYYADSVKGRFTISRDNAKNTVYLQMNSLKPEDTAVYYCNAGLTYNHDPYDYWGQGTQVTVSS | high polyreactivity
